Data provenance is the supplement of paper PMC10724198.

System: Saccharomyces cerevisiae
Assay: protein stability index of tFT-peptide fusion (C-terminal peptide) (PSI (0-1 scale)); higher = more stable (slower turnover)
Settings: genetic background: wild type; temperature: 30 C
Measure: protein stability index
When you answer, write just the number.

## Input For the sequence shown here, `HPSNMYSGDEAP` , give the reported protein stability index.
## Output 0.68

## Input For the sequence shown here, `VGCLGYNSAGIN` , give the reported protein stability index.
## Output 0.697

----------
Test system: Saccharomyces cerevisiae
Experiment: protein stability index of tFT-peptide fusion (C-terminal peptide) (PSI (0-1 scale)); higher = more stable (slower turnover)
Conditions: genetic background: wild type; temperature: 30 C
Measure: protein stability index
When you answer, write just the number.

Below, 6 sequences whose answers are already recorded.
VFWVVFRALVGD; 0.233
EKPKEGKNETKK; 0.734
ITSSPNVGKTTN; 0.713
EKQKNLPQEAKQ; 0.7
PTLDATLSVASG; 0.667
LFRNIFLFVFLI; 0.306

## Input For the sequence shown here, `EQMRRYILVSYV` , give the reported protein stability index.
## Output 0.352

## Input For the sequence shown here, `SRHGFLVNMCTL` , give the reported protein stability index.
## Output 0.683

## Input For the sequence shown here, `LRSAYGHCLQKI` , give the reported protein stability index.
## Output 0.715

----------
Test system: Saccharomyces cerevisiae
Test: protein stability index of tFT-peptide fusion in deletion strain of DAS1 (PSI (0-1 scale)); higher = more stable (slower turnover)
Measure: protein stability index
When you answer, write just the number.

Below, 6 sequences whose answers are already recorded.
KKHHKGQKQKIN; 0.588
PSLAANFWRVVG; 0.689
PDKRNALIKLLN; 0.629
VRGAVWGWRLVG; 0.649
FSMRWTLRYWVN; 0.438
ARARVGLWRGAS; 0.688

## Input Which protein stability index is reported with Saccharomyces cerevisiae for this entry: `LKILRQKMNHQNG` ?
## Output 0.662

## Input Which protein stability index is reported with Saccharomyces cerevisiae for this entry: `FSMRWTFRYWVW` ?
## Output 0.377

----------
Test system: Saccharomyces cerevisiae
Experiment: protein stability index of tFT-peptide fusion (C-terminal peptide) (PSI (0-1 scale)); higher = more stable (slower turnover)
Settings: genetic background: wild type; temperature: 30 C
param class (str): category from protein stability index; see ranges small value: < 0.2; mid value: ≥ 0.2 and < 0.4; large value: ≥ 0.4

VFCMVLPFVLLT; small value
WLALSFFSFFFC; large value

## Input Into which bin does this sequence go? `VDFCLLFLLLLV`
## Output mid value

## Input Into which bin does this sequence go? `IPFRRCFWFFWV`
## Output small value

## Input Into which bin does this sequence go? `IKSIKQNKIKTI`
## Output small value

## Input Into which bin does this sequence go? `GAQQRVKERYIE`
## Output large value

## Input Into which bin does this sequence go? `RVCWLRAFGFLV`
## Output mid value

## Input Into which bin does this sequence go? `FICYDRILTVYY`
## Output mid value

## Input Into which bin does this sequence go? `EGALSGGGKTSG`
## Output large value

## Input Into which bin does this sequence go? `VSRAVCLWRRLL`
## Output small value

----------
The following sequences are listed with their measured protein stability index values.
System: Saccharomyces cerevisiae
Assay: protein stability index of tFT-peptide fusion (C-terminal peptide) (PSI (0-1 scale)); higher = more stable (slower turnover)
Conditions: genetic background: wild type; temperature: 30 C
When you answer, write just the number.

VTPEEDEEEDEE [RPL22A C-terminal 12 aa]; 0.676
FHHMLIFIILKL [PRM2 C-terminal 12 aa]; 0.193
AERFDNTEVLHL [STE13 C-terminal 12 aa]; 0.689

## Input For the sequence shown here, TKKSSSHHRTGK [DIG1 C-terminal 12 aa] , give the reported protein stability index.
## Output 0.688

## Input For the sequence shown here, DQIYWFNHFSNV [AIM2 C-terminal 12 aa] , give the reported protein stability index.
## Output 0.696

## Input For the sequence shown here, TTLCILFLFFTW [GOS1 C-terminal 12 aa] , give the reported protein stability index.
## Output 0.401

## Input For the sequence shown here, ENVEEDKEVHTN [PBI2 C-terminal 12 aa] , give the reported protein stability index.
## Output 0.698

## Input For the sequence shown here, KKIVIIYVVRFH [BSC4 C-terminal 12 aa] , give the reported protein stability index.
## Output 0.339

## Input For the sequence shown here, KITEKWTHKDFK [NOP53 C-terminal 12 aa] , give the reported protein stability index.
## Output 0.719

## Input For the sequence shown here, RAGRSTLKETPQ [CCT6 C-terminal 12 aa] , give the reported protein stability index.
## Output 0.692

## Input For the sequence shown here, SNFSRTLGLEFI [YGL041C C-terminal 12 aa] , give the reported protein stability index.
## Output 0.716

## Input For the sequence shown here, QHYDEYYHELTN [PHO8 C-terminal 12 aa] , give the reported protein stability index.
## Output 0.683

## Input For the sequence shown here, IEIVKDAKRKGY [MRP21 C-terminal 12 aa] , give the reported protein stability index.
## Output 0.674

## Input For the sequence shown here, QLKKSKVSVELE [MAK11 C-terminal 12 aa] , give the reported protein stability index.
## Output 0.687

## Input For the sequence shown here, LSVIYMGWSPFY [TEL1 C-terminal 12 aa] , give the reported protein stability index.
## Output 0.773

## Input For the sequence shown here, LHENQLLKWLSK [RRN5 C-terminal 12 aa] , give the reported protein stability index.
## Output 0.7

## Input For the sequence shown here, DEGVSLVFEVPN [SQT1 C-terminal 12 aa] , give the reported protein stability index.
## Output 0.677

## Input For the sequence shown here, ALKLRALEKLSF [NCS6 C-terminal 12 aa] , give the reported protein stability index.
## Output 0.697

## Input For the sequence shown here, DNFNSAPSYFSK [MIG3 C-terminal 12 aa] , give the reported protein stability index.
## Output 0.682

## Input For the sequence shown here, SSANIDINSIAK [SPO22 C-terminal 12 aa] , give the reported protein stability index.
## Output 0.729

## Input For the sequence shown here, TTVPIVSKKRQK [POP3 C-terminal 12 aa] , give the reported protein stability index.
## Output 0.699

## Input For the sequence shown here, NDGTFLDEVTKN [OPI10 C-terminal 12 aa] , give the reported protein stability index.
## Output 0.687

## Input For the sequence shown here, FWHEVVVFPIPN [YDR015C C-terminal 12 aa] , give the reported protein stability index.
## Output 0.716

## Input For the sequence shown here, NYLVYHIEEENH [MNN9 C-terminal 12 aa] , give the reported protein stability index.
## Output 0.645

## Input For the sequence shown here, KMLWQGITDYYI [YOL163W C-terminal 12 aa] , give the reported protein stability index.
## Output 0.717
